# measured on: T1, human CCL17 (human, UniProt Q92583 24-94)
# T1 sequence: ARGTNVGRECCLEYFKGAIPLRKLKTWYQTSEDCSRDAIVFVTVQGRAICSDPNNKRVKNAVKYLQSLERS
# assay comment: cell-based or functional assay
measurement label: IC50 (nM), β-arrestin assay, Hek293 cells co-expressing CCR4, 20 nM CCL17
Kindly answer with a numeric value in nM, unit omitted.

[
  {
    "binder": "C17B311 (antibody, V domains shown) VH: EVQLVQSGAEVKKPGESLKISCKGSGYSFTSYWIGWVRQMPGKGLEWMGIIDPSDSDTRYSPSFQGQVTISADKSISTAYLQWSSLKASDTAMYYCARVGPADVWDAFDYWGQGTLVTVSS VL: DIVMTQSPDSLAVSLGERATINCKSSQSVLLSFDNINKLAWYQQKPGQPPKLLIYDASTRESGVPDRFSGSGSGTDFTLTISSLQAEDVAVYYCQQFYSVPSTFGQGTKVEIK",
    "measured result": 10.7
  },
  {
    "binder": "C17B302 (antibody, human IgG2, kappa, V domains shown) VH: EVQLVQSGAEVKKPGESLKISCKGSGYSFTSYWIGWVRQMPGKGLEWMGIIDPSDSDTRYSPSFQGQVTISADKSISTAYLQWSSLKASDTAMYYCARVGPADVWDAFDYWGQGTLVTVSS VL: DIVMTQSPDSLAVSLGERATINCKSSQSVLLSFDNINKLAWYQQKPGQPPKLLIYDASTRESGVPDRFSGSGSGTDFTLTISSLQAEDVAVYYCQQFYSVPSTFGQGTKVEIKR",
    "measured result": 13.9
  },
  {
    "binder": "C17B234 (antibody, V domains shown, Full IgG1, kappa) VH: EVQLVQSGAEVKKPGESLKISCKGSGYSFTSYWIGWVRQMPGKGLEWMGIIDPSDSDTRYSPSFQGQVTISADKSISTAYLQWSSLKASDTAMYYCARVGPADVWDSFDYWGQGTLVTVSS VL: DIVMTQSPDSLAVSLGERATINCKSSQSVLLSFDNINKLAWYQQKPGQPPKLLIYNASTRESGVPDRFSGSGSGTDFTLTISSLQAEDVAVYYCQQFYSVPSTFGQGTKVEIK",
    "measured result": 8.42
  }
]

Attention now shifts to the item below.
Report IC50 (nM), β-arrestin assay, Hek293 cells co-expressing CCR4, 20 nM CCL17 for C17B236 (antibody, V domains shown, Full IgG1, kappa) VH: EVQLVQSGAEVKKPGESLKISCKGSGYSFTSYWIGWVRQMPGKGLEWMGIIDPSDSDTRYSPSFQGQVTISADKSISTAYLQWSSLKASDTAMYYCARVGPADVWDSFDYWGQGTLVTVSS VL: DIVMTQSPDSLAVSLGERATINCKSSQSVLLSPWNSNQLAWYQQKPGQPPKLLIYGASTRESGVPDRFSGSGSGTDFTLTISSLQAEDVAVYYCQQYYLIPSTFGQGTKVEIK
6.98
